Hey, just so you know, these numbers are from paper PMC7819943.

# Tested Target: OsWRKY34 (Oryza sativa, UniProt Q0JBA9 1-250)
# Sequence (Q0JBA9 entry or part of it): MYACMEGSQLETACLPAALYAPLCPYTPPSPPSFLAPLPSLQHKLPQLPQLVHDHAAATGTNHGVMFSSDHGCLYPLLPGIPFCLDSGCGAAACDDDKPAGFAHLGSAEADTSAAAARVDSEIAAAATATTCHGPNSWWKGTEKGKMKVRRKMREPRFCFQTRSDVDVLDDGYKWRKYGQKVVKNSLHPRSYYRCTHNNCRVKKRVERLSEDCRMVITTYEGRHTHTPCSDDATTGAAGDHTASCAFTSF
# Method: protein-binding microarray (RPBM); PBS, 2% BSA, 51.3 ng/ul salmon testes DNA, 50 uM zinc acetate, 200 nM TF, 25 C, 1 h; high values mean tight binding
# Condition Label: protein: recombinant; tags: N-terminal polyhistidine and DsRed monomer fusion (pET32a); label: CyDye5-dUTP incorporated in the synthesized complementary strand; 3' TTTTT single-stranded linker to array surface; dsDNA, one strand shown
Whole data set: some 68,000 sequences, median “fluorescence intensity (a.u.)” near 9,100, cut for the highest 2% near 16,000. The sample as a whole holds a higher share of the highest values than the screen did.
Below, each entry is listed with its recorded binding signal.

Here are 5 sequences together with their reported answers.
>>> result("TTTGTCGTTGCTTCCCTTCTTGGAGACCTTGCCTTGAAGACGGAGTCACCTAGTGCAG")
"8090 fluorescence intensity (a.u.)"
>>> result("TACCGATGGGGCTCTTATACTCCAACTCTTGCCCTGTTTACGGAGTCACCTAGTGCAG")
"9020 fluorescence intensity (a.u.)"
>>> result("TAACACCCAACACTTACACTCTGGCATTTTGGAGGTCTTGCGGAGTCACCTAGTGCAG")
"8990 fluorescence intensity (a.u.)"
>>> result("CTCAACTCGGGATGACATTTGGGGTGTTTTTTTTTTGCAACGGAGTCACCTAGTGCAG")
"9820 fluorescence intensity (a.u.)"
>>> result("CAAACAGAGCACACCTTTTTCCAGGACATTTGTCAATATTCGGAGTCACCTAGTGCAG")
"9180 fluorescence intensity (a.u.)"

Qu. # query: binding signal of entry AAAAAAGTCAACCCATGTACACCGTCCGATCTCCATCCGACGGAGTCACCTAGTGCAG
Ans. 8110 fluorescence intensity (a.u.)

Qu. Consider the sequence GCTTTGAACACTCATCTCCTCACCGTGTTTGTTAGAGCTCCGGAGTCACCTAGTGCAG and give its measured binding signal.
Ans. 11200 fluorescence intensity (a.u.)

Qu. Recorded binding signal of GTTATAGCGCATCTATCAATCGTACTAAATTTCATTGTCCCGGAGTCACCTAGTGCAG , please.
Ans. 8450 fluorescence intensity (a.u.)

Qu. Fill in: binding signal of ATGGCTCGGTGGTGCACTATTTTTTTTTTAACTTAATTTGCGGAGTCACCTAGTGCAG is ___
Ans. 12100 fluorescence intensity (a.u.)

Qu. Which binding signal value is on record for TTTGTTTTGAGCCGAACAAATCGGTAGTCAGTGGGCGGGGCGGAGTCACCTAGTGCAG ?
Ans. 11900 fluorescence intensity (a.u.)

Qu. Look up binding signal: CAAGGCCCGCCCATCCGTCTCCTCACACTCTGGCACACCTCGGAGTCACCTAGTGCAG
Ans. 8580 fluorescence intensity (a.u.)

Qu. Form field: reported binding signal of CGACGTACCGTAGCCGATTTCTGTTGCTATTATCATGTTCCGGAGTCACCTAGTGCAG
Ans. 9450 fluorescence intensity (a.u.)

Qu. What value of measured binding signal is listed for CGGGGCGGCTGGCTTGACGCGTCATCTTCCCCGCGAAAATCGGAGTCACCTAGTGCAG ?
Ans. 14000 fluorescence intensity (a.u.)

Qu. Recorded binding signal for ATTTTGATTTTTGCAATCACCACCCCGCGCGGCGCAAACACGGAGTCACCTAGTGCAG , please?
Ans. 8880 fluorescence intensity (a.u.)

Qu. Can you share its binding signal? I mean this sequence: CCGCTCTGATTCGCAAACTATAACACCAAACAAACGGGCGCGGAGTCACCTAGTGCAG
Ans. 20100 fluorescence intensity (a.u.)

Qu. Reported binding signal, sequence ACGCCGTTGGCTTTTTAGCATATATTTGACCATTCATCTTCGGAGTCACCTAGTGCAG : ____
Ans. 8190 fluorescence intensity (a.u.)

Qu. Looking for the measured binding signal of GCAACACCTCCCCTGTTCTTGCTCTGTTTCCTCACTCTGTCGGAGTCACCTAGTGCAG , can you help?
Ans. 10200 fluorescence intensity (a.u.)

Qu. Which measured binding signal value corresponds to GACGCGGCGCAGTGCAACCAACAAACCGGGGCGGGCGGGGCGGAGTCACCTAGTGCAG ?
Ans. 11800 fluorescence intensity (a.u.)

Qu. Look at this sequence and give its reported binding signal. ACCACTCACCTCATGATTTTCGTTGTATTCGTTCCAGTCCCGGAGTCACCTAGTGCAG
Ans. 20000 fluorescence intensity (a.u.)

Qu. Return reported binding signal; argument: GACCTTTACTTTTTCATCCTACCTAAATGCATATTCCAATCGGAGTCACCTAGTGCAG
Ans. 9320 fluorescence intensity (a.u.)
